Listed next: entries and their corresponding self-cleavage.
B1: LINE1-full (parent)
chain: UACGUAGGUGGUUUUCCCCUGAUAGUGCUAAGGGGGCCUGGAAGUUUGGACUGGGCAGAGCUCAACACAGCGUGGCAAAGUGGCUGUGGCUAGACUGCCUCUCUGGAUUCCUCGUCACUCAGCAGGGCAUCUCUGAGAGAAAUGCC

# Variants of: B1
# Assay Notes: self-cleavage, relative activity (ratio to wild type); higher = more cleavage; in vitro, sequencing; the parent is a self-cleaving ribozyme
Readout: self-cleavage

G60A C113U
0
A79U G89C
0.02
G80U U100C
1.02
U26C A92U
0.81
A22U A136G
1.13
G33A U52A
0.53
U13C U102A
1.73
U29G C113U
0.66
A42G C146G
0.45
U1C C116A
1.42
A69U U130A
0.09
C19U C76U
1.64
A24G A77G
1.41
U9A A117U
1.11
A31G
1.11
G40A U100C
1.59
A43G G82A
1.31
A2G C38A
1.05
C38A A64G
0.18
U15A A136U
0.35
U47A A64G
0.2
U9A G93U
0.3
A64U C133U
0.49
G35U A124G
0.68
A6G G86A
0.31
U39A G70U
0.05
U20A G32C
1.33
C120U A142G
1.59
U91C C133A
0.74
U39C U119G
1.36
U85A G125A
0.04
G41A U134A
0.89
A117U G126C
1.47
U96A C128U
0.07
U12C A78G
0.95
A59G G114U
0.07
U45C U46G
1.37
U39G A79G
1.28
A64C A117G
0.42
U39A G48A
1.22
U1C U20C
0.79
G83A U104C
0.95
G54A A92G
0.04
A92G A124U
0.09
A59G C90U
0.03
A107U A129U
1.86
